Molecular target: MC4-R (Homo sapiens, UniProt P32245)
Sequence (P32245 whole entry): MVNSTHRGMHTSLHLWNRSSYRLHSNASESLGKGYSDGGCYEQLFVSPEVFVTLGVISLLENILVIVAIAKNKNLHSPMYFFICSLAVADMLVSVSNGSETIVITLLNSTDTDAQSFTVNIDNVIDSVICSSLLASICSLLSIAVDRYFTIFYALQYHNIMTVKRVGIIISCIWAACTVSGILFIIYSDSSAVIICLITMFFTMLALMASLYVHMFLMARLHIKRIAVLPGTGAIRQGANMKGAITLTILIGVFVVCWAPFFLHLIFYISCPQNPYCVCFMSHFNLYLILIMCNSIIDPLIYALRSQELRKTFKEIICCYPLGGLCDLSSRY
Assay: Competitive inhibition assay using [I^125]-NDP-α-MSH, hMC4-R membranes
Type: binding
Parameters: host or cells: TREx-293 (HEK-293 stably expressing Tet repressor)
Settings: read-out: Ki (nM) (NDP-α-MSH) In Normal System, MC4-R
Positions of bridges follow the written chain, without caps; N, C: chain ends. Non-standard residues stand in square brackets, D forms with d. Residues, ends and D or L forms follow the SMILES beside them. *: point of attachment. dPhe(4-Cl) = N[C@H](Cc1ccc(Cl)cc1)C(=O)O; 1Nal = N[C@@H](Cc1cccc2ccccc12)C(=O)O; Nle = CCCC[C@H](N)C(=O)O; Ahp = NCCCCCCC(=O)O; Bn = c1ccc(C*)cc1
Entries are grouped by Ki into these classes: c1 = under 5 nM, c2 = from 5 nM up to 10 nM, c3 = 10 nM and over

CCNC(=O)[C@@H]1CCCCNC(=O)C[C@H](NC(C)=O)C(=O)N[C@@H](Cc2c[nH]cn2)C(=O)N[C@H](Cc2ccccc2)C(=O)N[C@@H](CCCNC(=N)N)C(=O)N[C@@H](Cc2c[nH]c3ccccc23)C(=O)N1: c2

[ask] For N=C(N)NCCC[C@H](NC(=O)[C@@H](Cc1ccc(Cl)cc1)NC(=O)[C@H](COCc1ccccc1)NC(=O)CCCCCCN)C(=O)N[C@@H](Cc1c[nH]c2ccccc12)C(N)=O [Example 1] (H-[Ahp]S(Bn)[dPhe(4-Cl)]RW-NH2) , which Ki bin applies?
[reply] c1

[ask] What about CC(=O)N[C@H](Cc1ccc(C)cc1C)C(=O)N1C[C@@H](C)N(C(=O)Cc2ccc3ccccc3c2)C[C@@H]1CCCNC(=N)N ?
[reply] c3

[ask] What about CC(=O)N[C@H](Cc1ccc2ccccc2c1)C(=O)N1C[C@@H](C)N(C(=O)Cc2ccc3ccccc3c2)C[C@@H]1CCCNC(=N)N ?
[reply] c2

[ask] What about CCCC[C@H](NC(C)=O)C(=O)N[C@H]1CC(=O)NCCCC[C@@H](C(=O)NCC)NC(=O)[C@H](Cc2cccc3ccccc23)NC(=O)[C@H](CCCNC(=N)N)NC(=O)[C@@H](Cc2ccccc2)NC(=O)[C@H](Cc2c[nH]c3ccccc23)NC1=O [Example 38] (Ac-[Nle]DW[dF]R[1Nal]K-NHEt; lactam 2-7) ?
[reply] c2

[ask] What about C[C@@H]1CN(C(=O)[C@H](N)Cc2ccc3ccccc3c2)[C@@H](CCCNC(=N)N)CN1C(=O)Cc1ccc2ccccc2c1 ?
[reply] c3

[ask] What about NCCCC[C@H]1C(=O)N(CCc2ccc3ccccc3c2)CCN1C(=O)[C@@H](Cc1ccc(Cl)cc1Cl)NC(=O)[C@@H]1CC[C@H](c2ccccc2)N1 ?
[reply] c3

[ask] What about CCCC[C@H](NC(C)=O)C(=O)N[C@H]1CC(=O)NCCCC[C@@H](C(=O)N(C)C)NC(=O)[C@H](Cc2cccc3ccccc23)NC(=O)[C@H](CCCNC(=N)N)NC(=O)[C@@H](Cc2ccccc2)NC(=O)[C@H](Cc2c[nH]c3ccccc23)NC1=O [Example 36] (Ac-[Nle]DW[dF]R[1Nal]K-NMe2; lactam 2-7) ?
[reply] c3

[ask] What about CCCC[C@H](NC(C)=O)C(=O)N[C@H]1CC(=O)NCCCC[C@@H](C(=O)NCC)NC(=O)[C@H](Cc2cccc3ccccc23)NC(=O)[C@H](CCCNC(=N)N)NC(=O)[C@@H](Cc2ccccc2)NC(=O)[C@H](Cc2c[nH]cn2)NC1=O ?
[reply] c1

Sourced from patent US20090081197A1
